molecular target: HLA-DRB1*04:01 (Homo sapiens, UniProt P01903+P01911, A100K/A169T/F76Y/I96L/K127E/L162R/M171V/N62H/P40V/Q125Y/R42H/S133A/S149N/S66Y/V115G/V209L/W38E); construct: EBV transformed homozygous cell lines were used as sources of MHC molecules; endogenous in cells; host or cells: EBV transformed homozygous cell lines; experiment: HLA class II peptide binding, inhibition of radiolabeled peptide binding to purified MHC; settings: citrullinated peptide as listed (X at Cit position); read-out: DRB1*04:01 binding capacity Cit peptide (IC50 nM)
Square brackets hold non-standard residues; d marks the D form. Peptide text beside a SMILES is read from it. Cit = NC(=O)NCCC[C@H](N)C(=O)O
readoutName: IC50 (nM)
Report only the number, with the unit nM understood.

Exercise: Any idea what IC50 was measured for CC(C)C[C@H](NC(=O)[C@H](C)NC(=O)[C@@H](NC(=O)[C@H](Cc1ccc(O)cc1)NC(=O)[C@@H](NC(=O)[C@H](Cc1ccccc1)NC(=O)[C@H](CCCNC(N)=O)NC(=O)[C@H](CO)NC(=O)[C@@H](N)CC(N)=O)[C@@H](C)O)[C@@H](C)O)C(=O)N[C@@H](CCCCN)C(=O)N[C@@H](CC(=O)O)C(=O)NCC(=O)N[C@@H](CS)C(=O)N[C@H](C(=O)N[C@@H](CCCCN)C(=O)O)[C@@H](C)O [NSXFTYTALKDGCTK] (H-NS[Cit]FTYTALKDGCTK-OH) ?
Key: 12400
